Each entry below carries its recorded hERG current change (%, negative = inhibition) at 1uM.
Molecular target: human ether-à-go-go-related gene (hERG) potassium channel (human, UniProt Q12809)
Sequence (Q12809 whole entry, looked up): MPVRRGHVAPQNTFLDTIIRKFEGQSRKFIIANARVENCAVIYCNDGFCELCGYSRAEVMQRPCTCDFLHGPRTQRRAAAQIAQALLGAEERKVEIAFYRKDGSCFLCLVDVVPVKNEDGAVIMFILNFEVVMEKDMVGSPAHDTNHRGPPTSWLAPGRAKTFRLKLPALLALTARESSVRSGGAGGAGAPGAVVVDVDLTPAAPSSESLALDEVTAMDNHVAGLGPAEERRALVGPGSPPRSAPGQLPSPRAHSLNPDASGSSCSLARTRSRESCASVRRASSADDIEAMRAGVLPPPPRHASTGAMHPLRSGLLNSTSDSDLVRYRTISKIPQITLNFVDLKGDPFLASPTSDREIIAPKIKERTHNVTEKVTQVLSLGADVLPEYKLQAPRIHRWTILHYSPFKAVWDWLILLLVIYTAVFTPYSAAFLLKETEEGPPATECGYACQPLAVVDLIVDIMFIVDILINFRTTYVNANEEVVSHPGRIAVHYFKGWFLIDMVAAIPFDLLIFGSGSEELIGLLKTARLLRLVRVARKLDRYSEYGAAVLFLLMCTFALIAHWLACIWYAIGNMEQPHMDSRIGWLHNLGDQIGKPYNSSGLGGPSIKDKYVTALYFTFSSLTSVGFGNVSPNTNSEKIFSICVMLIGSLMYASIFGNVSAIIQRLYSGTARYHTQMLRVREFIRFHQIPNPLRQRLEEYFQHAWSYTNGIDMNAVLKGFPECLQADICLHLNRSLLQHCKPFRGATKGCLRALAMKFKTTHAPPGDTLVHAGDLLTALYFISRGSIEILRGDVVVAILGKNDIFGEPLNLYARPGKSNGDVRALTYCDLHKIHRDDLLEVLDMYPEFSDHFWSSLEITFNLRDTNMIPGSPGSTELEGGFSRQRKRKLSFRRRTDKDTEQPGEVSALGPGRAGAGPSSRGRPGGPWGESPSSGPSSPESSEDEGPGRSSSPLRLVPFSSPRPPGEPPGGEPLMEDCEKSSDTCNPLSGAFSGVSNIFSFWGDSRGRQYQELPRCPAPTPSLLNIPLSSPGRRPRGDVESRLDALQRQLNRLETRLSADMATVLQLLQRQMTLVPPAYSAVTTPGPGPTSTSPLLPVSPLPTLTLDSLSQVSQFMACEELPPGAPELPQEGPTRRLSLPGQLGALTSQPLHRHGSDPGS
Assay: primary screen, population patch clamp on CHO cells stably expressing hERG; higher = less effect of the substance
Screen size: about 310,000 compounds; about 2,200 (0.71%) showed an effect of 50% or more. The effect is printed as a negative number. This excerpt belongs to a sample that is enriched for strong results.
Parameter measured: hERG current change (%, negative = inhibition) at 1uM (%)

Molecule	Units label	Value observed
CCCCNC(=O)c1cc2c(=O)n3cccc(C)c3nc2n(Cc2ccccc2)c1=N	%	-80.7
CC(C)=CCN1CCN(Cc2ccc3nsnc3c2)CC1CCO (stereo not shown)	%	4.93
OCCC1CN(Cc2nc(-c3ccccc3)cs2)CCN1CCc1ccccc1 (stereo not shown)	%	-42.8
Cc1cccn2c(=O)c3cc(C(=O)NC(C)C)c(=N)n(Cc4ccncc4)c3nc12	%	-67.2
OCC1(Cc2ccc(Cl)cc2)CCN(Cc2ccc3nsnc3c2)CC1	%	-6.01
CC(C)CCN1CCN(Cc2ccc3nsnc3c2)CC1CCO (stereo not shown)	%	-21.3
COCCCNC(=O)c1cccn2c(=O)c3cc4ccccc4cc3nc12	%	-8.65
COc1cc2ccccc2cc1C(=O)N(CCN(C)C)c1nc2c(OC)ccc(OC)c2s1.Cl	%	14
CCNC(=O)c1cc2c(=O)n3cccc(C)c3nc2n(Cc2ccc(C)cc2)c1=N	%	-97.1
CC(C)CCN1CCN(Cc2nc3ccccc3s2)CC1CCO (stereo not shown)	%	-8.09

----------
Target: human ether-à-go-go-related gene (hERG) potassium channel (human)
Assay: primary screen, population patch clamp on CHO cells stably expressing hERG; higher = less effect of the substance
Source text: Briefly, Chinese hamster ovary (CHO) cells stably expressing the hERG channel were dislodged from tissue culture flasks and dispensed into PPC plates. […] Small molecule effects on hERG current density were quantified by […].
The whole screen tested about 310,000 compounds, of which about 2,200 (0.71%) showed an effect of 50% or more. Effects have a minus sign here. Many of the other results were omitted from the sample, so strong results are more common in it than they were.
Each entry below carries its recorded hERG current change (%, negative = inhibition) at 1uM.
Parameter measured: hERG current change (%, negative = inhibition) at 1uM (%)

Smiles record	Tgt	Value observed
CC1CCN(CCOc2ccc(C(=O)c3ccccc3)cc2)CC1.O=C(O)C(=O)O	human ether-à-go-go-related gene (hERG) potassium channel (human)	3.49
CCOc1cc(C#N)ccc1OCC(=O)N1CCN(C(=O)c2cccs2)CC1	human ether-à-go-go-related gene (hERG) potassium channel (human)	-16.1
CC1CCN(CCCCOc2ccc(C(=O)c3ccccc3)cc2)CC1.O=C(O)C(=O)O	human ether-à-go-go-related gene (hERG) potassium channel (human)	-72.4
Cc1ccc(NC(=O)NCCCCc2ccccc2)cc1	human ether-à-go-go-related gene (hERG) potassium channel (human)	14.4
CCC1(CC)NC(=O)N(CC(=O)OCC(=O)Nc2ccc(F)c(F)c2F)C1=O	human ether-à-go-go-related gene (hERG) potassium channel (human)	4.85
COc1cc(OC)cc(-c2nnc(Nc3nc4c(F)cccc4s3)o2)c1	human ether-à-go-go-related gene (hERG) potassium channel (human)	6.96
CCN1CCN(CCCOc2ccccc2-c2ccccc2)CC1.O=C(O)C(=O)O	human ether-à-go-go-related gene (hERG) potassium channel (human)	-16.6
COc1cccc2sc(N(CCCN(C)C)C(=O)COc3ccc(Cl)cc3)nc12.Cl	human ether-à-go-go-related gene (hERG) potassium channel (human)	-68.9
Cc1cc2oc(=O)cc(CN3CCC(C)CC3)c2cc1C	human ether-à-go-go-related gene (hERG) potassium channel (human)	12.8
COCCNCCCOc1ccc(Br)cc1Cl.O=C(O)C(=O)O	human ether-à-go-go-related gene (hERG) potassium channel (human)	0.786
CN(C)CCCN(C(=O)COc1ccccc1)c1nc2c(F)cccc2s1.Cl	human ether-à-go-go-related gene (hERG) potassium channel (human)	-55.8
COCCCNCCCCOc1ccc(Br)cc1C.O=C(O)C(=O)O	human ether-à-go-go-related gene (hERG) potassium channel (human)	-24
COc1ccc(C(=O)Nc2ccccc2NC(=O)c2ccco2)cc1OC	human ether-à-go-go-related gene (hERG) potassium channel (human)	-9.39
O=C(COC(=O)CN1C(=O)c2ccccc2C1=O)Nc1cccc(F)c1	human ether-à-go-go-related gene (hERG) potassium channel (human)	5.95
CC(=O)Nc1ccc(OC(=O)c2cc3cc(Br)cc(Br)c3oc2=O)cc1	human ether-à-go-go-related gene (hERG) potassium channel (human)	5.16
Cl.OCCCN1CCN(CCCOc2ccccc2-c2ccccc2)CC1	human ether-à-go-go-related gene (hERG) potassium channel (human)	-57.7
CCOc1ccc(CCNC(=O)CN2CCN(Cc3ccccc3F)C2=O)cc1OCC	human ether-à-go-go-related gene (hERG) potassium channel (human)	-0.385
Cc1cccc2sc(N(CCCN(C)C)C(=O)COc3ccc(Cl)cc3)nc12.Cl	human ether-à-go-go-related gene (hERG) potassium channel (human)	-6.98
CCOc1cccc2sc(N(CCCN(C)C)C(=O)c3ccc(C(=O)c4ccccc4)cc3)nc12.Cl	human ether-à-go-go-related gene (hERG) potassium channel (human)	-29.5
Cc1sc(-c2ccccn2)nc1OC(=O)c1ccc(F)cc1F	human ether-à-go-go-related gene (hERG) potassium channel (human)	16.2
